Assay: Aqueous stability studies (UV-vis monitoring, ESI-MS follow-up)
Format: physicochemical
Details: PBS pH 7.4, HEPES pH 7.0 and acetate buffer pH 4.6; 37 °C, 18 hours, 50 μM
EXPERIMENTAL READOUT: Change of UV-vis spectrum over time (aqueous stability)

# MOL, RESULT
data = [
    ("O=C(NCCn1cnc2ccccc21)[c-]1cccc1.[Fe+2].c1cc[cH-]c1", "remained unchanged"),
    ("O=C(NCCn1cnc2ncccc21)[c-]1cccc1.[Fe+2].c1cc[cH-]c1", "remained unchanged"),
    ("O=C(NCCn1cnc2cccnc21)[c-]1cccc1.[Fe+2].c1cc[cH-]c1", "remained unchanged"),
]

Origin of measurements: paper PMC11385693
